System: 855422-203-R-J1-PDC complex spheroids, viability
Assay details: Anticancer human tumor 855422-203-R-J1-PDC patient-derived bladder carcinoma cell line growth inhibition [CLK]; active = viability on the fitted dose curve at most 10% of control; inactive = the rest
Condition set: second compound 3.16 µM; first compound 10 µM
From the text: A high-throughput screen of multi-cell type tumor spheroids was designed to identify active combinations of […] and targeted small molecules. Complex spheroids include a stromal component modeled by human endothelial cells (HUVEC) and fibroblasts modeled by human mesenchymal stem cells (MSCs). […] Compounds. […] If the clinical Cmax for an agent had not been determined, the highest concentration tested was 10 microM. […]
Your answer must be one of the following: True = active, False = inactive

The examples below pair each entry with its known result.
| Compound | Tgt | Answer label |
| --- | --- | --- |
| C=C(F)C(=O)N1CCN(c2nc(OCC3CCCN3C)nc3c2CCN(c2cccc4cccc(Cl)c24)C3)CC1CC#N (configuration not stated) + CNC(=O)c1ccc(Nc2nc(OC3CCCC3)c3c(-c4ccc5nc(C)oc5c4)c[nH]c3n2)c(OC)c1 | 855422-203-R-J1-PDC complex spheroids, viability | True |
| O=C(c1cc(Cc2n[nH]c(=O)c3ccccc23)ccc1F)N1CCN(C(=O)C2CC2)CC1 + CNC(=O)c1ccc(Nc2nc(OC3CCCC3)c3c(-c4ccc5nc(C)oc5c4)c[nH]c3n2)c(OC)c1 | 855422-203-R-J1-PDC complex spheroids, viability | False |
| C#Cc1c(F)ccc2cc(O)cc(-c3ncc4c(N5CC6CCC(C5)N6)nc(OCC56CCCN5CC(F)C6)nc4c3F)c12 (configuration not stated) + CN1CCN(c2cc(C(=O)Nc3cc4cc(-c5cnn(C)c5)ccc4cn3)ccn2)CC1 | 855422-203-R-J1-PDC complex spheroids, viability | True |

For COc1cccc2c1C(=O)c1c(O)c3c(c(O)c1C2=O)CC(O)(C(=O)CO)CC3OC1CC(N)C(O)C(C)O1 (configuration not stated) + CNC(=O)c1ccc(Nc2nc(OC3CCCC3)c3c(-c4ccc5nc(C)oc5c4)c[nH]c3n2)c(OC)c1 , what call appears in the results of this test?
True

# lookup: test call for O=C(c1cc(Cc2n[nH]c(=O)c3ccccc23)ccc1F)N1CCN(C(=O)C2CC2)CC1 + CN1CCN(c2cc(C(=O)Nc3cc4cc(-c5cnn(C)c5)ccc4cn3)ccn2)CC1
True

Status in this test for O=c1[nH]cc(F)c(=O)[nH]1 + CN1CCN(c2cc(C(=O)Nc3cc4cc(-c5cnn(C)c5)ccc4cn3)ccn2)CC1 ?
True

What was the test verdict on CCCS(=O)(=O)Nc1ccc(F)c(C(=O)c2c[nH]c3ncc(-c4ccc(Cl)cc4)cc23)c1F + CNC(=O)c1ccc(Nc2nc(OC3CCCC3)c3c(-c4ccc5nc(C)oc5c4)c[nH]c3n2)c(OC)c1 ?
False

Please let me know the test result on file for CC(Nc1ccc2c(c1)OCCn1cc(N3C(=O)OCC3C(F)F)nc1-2)C(N)=O (configuration not stated) + CN1CCN(c2cc(C(=O)Nc3cc4cc(-c5cnn(C)c5)ccc4cn3)ccn2)CC1 .
True

* * *

Listed here: items and their measured viability, T/C.
Test system: 855422-203-R-J1-PDC complex spheroids, viability
Assay details: Anticancer human tumor 855422-203-R-J1-PDC cell line growth inhibition [CLK];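 note: spheroids exposed to drugs for seven days before readout; 100% = DMSO vehicle control wells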
Condition set: second compound 1 µM; first compound 0.0316 µM; active compounds read low
Report the figure in % without appending any unit label.

Here is how some compounds turned out for viability, T/C.
| Compound | Assay readout | Endpoint result |
| --- | --- | --- |
| COc1c(OCCCN2CCOCC2)ccc2c3n(c(=NC(=O)c4cnc(N)nc4)nc12)CCN3 + CNC(=O)c1ccc(Nc2nc(OC3CCCC3)c3c(-c4ccc5nc(C)oc5c4)c[nH]c3n2)c(OC)c1 | viability, T/C | 7.5 |
| CCc1c2c(nc3ccc(O)cc13)-c1cc3c(c(=O)n1C2)COC(=O)[C@]3(O)CC + CN1CCN(c2cc(C(=O)Nc3cc4cc(-c5cnn(C)c5)ccc4cn3)ccn2)CC1 | viability, T/C | 0.3 |
| COc1cccc2c1C(=O)c1c(O)c3c(c(O)c1C2=O)CC(O)(C(=O)CO)CC3OC1CC(N)C(O)C(C)O1 (configuration not stated) + CN1CCN(c2cc(C(=O)Nc3cc4cc(-c5cnn(C)c5)ccc4cn3)ccn2)CC1 | viability, T/C | 0.21 |
| CC(Nc1ccc2c(c1)OCCn1cc(N3C(=O)OCC3C(F)F)nc1-2)C(N)=O (configuration not stated) + CNC(=O)c1ccc(Nc2nc(OC3CCCC3)c3c(-c4ccc5nc(C)oc5c4)c[nH]c3n2)c(OC)c1 | viability, T/C | 16.9 |
| C=CC(=O)N1CCN(c2nc(=O)n(-c3c(C)ccnc3C(C)C)c3nc(-c4c(O)cccc4F)c(F)cc23)C(C)C1 (configuration not stated) + CN1CCN(c2cc(C(=O)Nc3cc4cc(-c5cnn(C)c5)ccc4cn3)ccn2)CC1 | viability, T/C | 0.24 |

Provide only the value of recorded viability, T/C for CC1(C)CCC(CN2CCN(c3ccc(C(=O)NS(=O)(=O)c4ccc(NCC5CCOCC5)c([N+](=O)[O-])c4)c(Oc4cnc5[nH]ccc5c4)c3)CC2)=C(c2ccc(Cl)cc2)C1 + CNC(=O)c1ccc(Nc2nc(OC3CCCC3)c3c(-c4ccc5nc(C)oc5c4)c[nH]c3n2)c(OC)c1
21.3

State its viability, T/C for this compound: CC1COCCN1c1cc(C2(S(C)(=N)=O)CC2)nc(-c2ccnc3[nH]ccc23)n1 (configuration not stated) + CN1CCN(c2cc(C(=O)Nc3cc4cc(-c5cnn(C)c5)ccc4cn3)ccn2)CC1
0.34
